Assign polymerase ribozyme fitness (log ratio) to each entry below.
B1: TPR t1 (parent)
chain: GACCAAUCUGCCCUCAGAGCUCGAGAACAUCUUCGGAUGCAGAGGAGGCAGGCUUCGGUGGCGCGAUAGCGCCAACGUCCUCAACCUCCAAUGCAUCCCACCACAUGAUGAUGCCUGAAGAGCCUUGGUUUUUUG

variants of: B1; assay: polymerase ribozyme fitness, log enrichment relative to wild type (log ratio); higher = more active; in vitro selection for triplet polymerase activity
Give bare numbers.

Known results for variants:
sequence.change	polymerase ribozyme fitness (log ratio)
A29G U130G	-1.15
U7G G65U	-5.58

For every listed record, write down its polymerase ribozyme fitness (log ratio).
1. C15U U96A A119G
2. C12U A83C
3. A118U G128A
4. G61U U81G C86U G120U

Result block:
0.622
0.0344
-1.29
-2.64

For every listed record, write down its polymerase ribozyme fitness (log ratio).
1. A66U C94A
2. C53A C70U U78C C86G
3. C11G A66C
4. A16U G60C
5. G63A U81C A90U
6. C73U A103C
7. G39U G47C G57U A84C
8. G19A C101U

Result block:
[-2.12, -1.12, -0.842, -2.17, -4.66, -3.82, -3.89, -3.3]

For every listed record, write down its polymerase ribozyme fitness (log ratio).
1. C15U C34A G45C
2. U33A C88U

Result block:
1. -6.34
2. -3.66

For every listed record, write down its polymerase ribozyme fitness (log ratio).
1. G61C C82U
2. A50C G71A C79G C104A
3. G39A C64U C124A
4. C12A C102U C115A
5. C4U U9G A24U G57C G58U A84G C85A C114G C123G
6. G44U C73U G113C A121G G128A

Result block:
-1.83
-5.88
1.06
-4.21
-7.47
-4.53

Hey, just so you know, these numbers are from the RNAGym collection of RNA variant scans (doi:10.1073/pnas.2313332121).
